Just for reference, PubChem BioAssay AID1918931 is where these values come from.

tested on: 138582-337-R-J1-PDC complex spheroid viability; assay: Anticancer human tumor 138582-337-R-J1-PDC patient-derived Merkel cell tumor cell line growth inhibition; conditions: second compound 1 µM; first compound 0.0949 µM; active = viability on the fitted dose curve at most 10% of control; inactive = the rest
Classes used: y (active), n (inactive)

Compound	Group label
COc1cc(C2c3cc4c(cc3C(OC3OC5COC(C)OC5C(O)C3O)C3COC(=O)C23)OCO4)cc(OC)c1O (stereo unspecified) + NC1CC1c1ccc(-c2cccc(O)c2)cc1	n
CCN(c1cc(-c2ccc(CN3CCOCC3)cc2)cc(C(=O)NCc2c(C)cc(C)[nH]c2=O)c1C)C1CCOCC1 + NC1CCC(NC2CC2c2ccccc2)CC1	n
Nc1ncn(C2CC(O)C(CO)S2)c(=O)n1 (stereo unspecified) + NC1CCC(NC2CC2c2ccccc2)CC1	n
CCc1c2c(nc3ccc(O)cc13)-c1cc3c(c(=O)n1C2)COC(=O)[C@]3(O)CC + NC1CC1c1ccc(-c2cccc(O)c2)cc1	y
Nc1ncn(C2CC(O)C(CO)S2)c(=O)n1 (stereo unspecified) + NC1CC1c1ccc(-c2cccc(O)c2)cc1	n
Nc1ccccc1NC(=O)c1ccc(CNC(=O)OCc2cccnc2)cc1 + NC1CC1c1ccc(-c2cccc(O)c2)cc1	n
Nc1ccccc1NC(=O)c1ccc(CNC(=O)OCc2cccnc2)cc1 + NC1CCC(NC2CC2c2ccccc2)CC1	n
Nc1ccn(C2OC(CO)C(O)C2(F)F)c(=O)n1 (stereo unspecified) + NC1CCC(NC2CC2c2ccccc2)CC1	n
NS(=O)(=O)OCC1CC(n2ccc3c(NC4CCc5ccccc54)ncnc32)CC1O (stereo unspecified) + NC1CC1c1ccc(-c2cccc(O)c2)cc1	n
Nc1ccn(C2OC(CO)C(O)C2(F)F)c(=O)n1 (stereo unspecified) + NC1CC1c1ccc(-c2cccc(O)c2)cc1	n
O=C(C=Cc1cccc(S(=O)(=O)Nc2ccccc2)c1)NO + NC1CCC(NC2CC2c2ccccc2)CC1	n
CCc1c2c(nc3ccc(O)cc13)-c1cc3c(c(=O)n1C2)COC(=O)[C@]3(O)CC + NC1CCC(NC2CC2c2ccccc2)CC1	y
NS(=O)(=O)OCC1CC(n2ccc3c(NC4CCc5ccccc54)ncnc32)CC1O (stereo unspecified) + NC1CCC(NC2CC2c2ccccc2)CC1	n
CCN(c1cc(-c2ccc(CN3CCOCC3)cc2)cc(C(=O)NCc2c(C)cc(C)[nH]c2=O)c1C)C1CCOCC1 + NC1CC1c1ccc(-c2cccc(O)c2)cc1	n
COc1cc(C2c3cc4c(cc3C(OC3OC5COC(C)OC5C(O)C3O)C3COC(=O)C23)OCO4)cc(OC)c1O (stereo unspecified) + NC1CCC(NC2CC2c2ccccc2)CC1	n
O=C(C=Cc1cccc(S(=O)(=O)Nc2ccccc2)c1)NO + NC1CC1c1ccc(-c2cccc(O)c2)cc1	n

###

System: 138582-337-R-J1-PDC complex spheroid viability
Test: Anticancer human tumor 138582-337-R-J1-PDC cell line growth inhibition;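 also: spheroids exposed to agents for 7 days; 100% = DMSO vehicle control viability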
Settings: second compound 1 µM; first compound 0.949 µM; active compounds read low
Source text: Multicellular complex tumor spheroid response to LSD1 Inhibitor Iadademstat in combination with a variety of drugs and investigational agents in selected tumor cell lines The current study was undertaken to assess response to LSD1 inhibitors in combination with standard-of-care drugs and investigational agents in solid tumor complex spheroid models as well as in the K-562 leukemia. […] Compounds. […] If the clinical Cmax for an agent had not been determined, the highest concentration tested was 10 microM. […]
Endpoint label: viability, T/C (%)

Compound	System name	Endpoint label	Unit spec	Reported value
NS(=O)(=O)OCC1CC(n2ccc3c(NC4CCc5ccccc54)ncnc32)CC1O (stereo not drawn) + NC1CCC(NC2CC2c2ccccc2)CC1	138582-337-R-J1-PDC complex spheroid viability	viability, T/C	%	35.3
CCN(c1cc(-c2ccc(CN3CCOCC3)cc2)cc(C(=O)NCc2c(C)cc(C)[nH]c2=O)c1C)C1CCOCC1 + NC1CC1c1ccc(-c2cccc(O)c2)cc1	138582-337-R-J1-PDC complex spheroid viability	viability, T/C	%	64.7
NS(=O)(=O)OCC1CC(n2ccc3c(NC4CCc5ccccc54)ncnc32)CC1O (stereo not drawn) + NC1CC1c1ccc(-c2cccc(O)c2)cc1	138582-337-R-J1-PDC complex spheroid viability	viability, T/C	%	15.6

###

test system: 138582-337-R-J1-PDC complex spheroid viability; assay: Anticancer human tumor 138582-337-R-J1-PDC cell line growth inhibition; details: second compound 10 µM; first compound 0.000949 µM; active compounds read low;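 also: spheroids exposed to agents for 7 days; 100% = DMSO vehicle control viability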
Each entry below lists one item and its recorded viability, T/C value.

Molecule	viability, T/C
Nc1ccn(C2OC(CO)C(O)C2(F)F)c(=O)n1 (stereo unspecified) + NC1CCC(NC2CC2c2ccccc2)CC1	88.7%
Nc1ccn(C2OC(CO)C(O)C2(F)F)c(=O)n1 (stereo unspecified) + NC1CC1c1ccc(-c2cccc(O)c2)cc1	93.5%
Nc1ncn(C2CC(O)C(CO)S2)c(=O)n1 (stereo unspecified) + NC1CCC(NC2CC2c2ccccc2)CC1	80.1%
CCc1c2c(nc3ccc(O)cc13)-c1cc3c(c(=O)n1C2)COC(=O)[C@]3(O)CC + NC1CC1c1ccc(-c2cccc(O)c2)cc1	82.4%
CCc1c2c(nc3ccc(O)cc13)-c1cc3c(c(=O)n1C2)COC(=O)[C@]3(O)CC + NC1CCC(NC2CC2c2ccccc2)CC1	68.8%
Nc1ncn(C2CC(O)C(CO)S2)c(=O)n1 (stereo unspecified) + NC1CC1c1ccc(-c2cccc(O)c2)cc1	74.3%

###

system: 138582-337-R-J1-PDC complex spheroid viability; experiment: Anticancer human tumor 138582-337-R-J1-PDC cell line growth inhibition; conditions: second compound 0.316 µM; first compound 0.00316 µM; active compounds read low;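 also: spheroids exposed to agents for 7 days; 100% = DMSO vehicle control viability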
Form field: viability, T/C (one value per entry).
Endpoint label: viability, T/C

Compound	System name	Reported value
CC(C)CC(NC(=O)C(Cc1ccccc1)NC(=O)c1cnccn1)B(O)O (stereo unspecified) + NC1CCC(NC2CC2c2ccccc2)CC1	138582-337-R-J1-PDC complex spheroid viability	0.83%
CC1COCCN1c1cc(-c2ccnn2C)c2ccnc(-c3ccn[nH]3)c2n1 (stereo unspecified) + NC1CC1c1ccc(-c2cccc(O)c2)cc1	138582-337-R-J1-PDC complex spheroid viability	68%
Nc1ncn(C2CC(O)C(CO)O2)c(=O)n1 (stereo unspecified) + NC1CCC(NC2CC2c2ccccc2)CC1	138582-337-R-J1-PDC complex spheroid viability	82.7%
O=C(C=Cn1cnc(-c2cc(C(F)(F)F)cc(C(F)(F)F)c2)n1)NNc1cnccn1 + NC1CCC(NC2CC2c2ccccc2)CC1	138582-337-R-J1-PDC complex spheroid viability	67%
COc1cc(Nc2ncc3c(n2)-c2ccc(Cl)cc2C(c2c(F)cccc2OC)=NC3)ccc1C(=O)O + NC1CC1c1ccc(-c2cccc(O)c2)cc1	138582-337-R-J1-PDC complex spheroid viability	64.7%
Nc1ncn(C2CC(O)C(CO)O2)c(=O)n1 (stereo unspecified) + NC1CC1c1ccc(-c2cccc(O)c2)cc1	138582-337-R-J1-PDC complex spheroid viability	82.3%
CC1COCCN1c1cc(-c2ccnn2C)c2ccnc(-c3ccn[nH]3)c2n1 (stereo unspecified) + NC1CCC(NC2CC2c2ccccc2)CC1	138582-337-R-J1-PDC complex spheroid viability	76.9%
CC(C)CC(NC(=O)CNC(=O)c1cc(Cl)ccc1Cl)B1OC(=O)CC(CC(=O)O)(C(=O)O)O1 (stereo unspecified) + NC1CC1c1ccc(-c2cccc(O)c2)cc1	138582-337-R-J1-PDC complex spheroid viability	115%
COc1cc(Nc2ncc3c(n2)-c2ccc(Cl)cc2C(c2c(F)cccc2OC)=NC3)ccc1C(=O)O + NC1CCC(NC2CC2c2ccccc2)CC1	138582-337-R-J1-PDC complex spheroid viability	99.2%
Cn1ncnc1C1c2n[nH]c(=O)c3cc(F)cc(c23)NC1c1ccc(F)cc1 (stereo unspecified) + NC1CC1c1ccc(-c2cccc(O)c2)cc1	138582-337-R-J1-PDC complex spheroid viability	74.2%
Cn1ncnc1C1c2n[nH]c(=O)c3cc(F)cc(c23)NC1c1ccc(F)cc1 (stereo unspecified) + NC1CCC(NC2CC2c2ccccc2)CC1	138582-337-R-J1-PDC complex spheroid viability	95.7%
CC[C@@]1(O)C(=O)OCc2c1cc1n(c2=O)Cc2cc3c(CN(C)C)c(O)ccc3nc2-1 + NC1CC1c1ccc(-c2cccc(O)c2)cc1	138582-337-R-J1-PDC complex spheroid viability	73.2%
O=C(C=Cn1cnc(-c2cc(C(F)(F)F)cc(C(F)(F)F)c2)n1)NNc1cnccn1 + NC1CC1c1ccc(-c2cccc(O)c2)cc1	138582-337-R-J1-PDC complex spheroid viability	56.7%
CC(C)CC(NC(=O)CNC(=O)c1cc(Cl)ccc1Cl)B1OC(=O)CC(CC(=O)O)(C(=O)O)O1 (stereo unspecified) + NC1CCC(NC2CC2c2ccccc2)CC1	138582-337-R-J1-PDC complex spheroid viability	115%
CC[C@@]1(O)C(=O)OCc2c1cc1n(c2=O)Cc2cc3c(CN(C)C)c(O)ccc3nc2-1 + NC1CCC(NC2CC2c2ccccc2)CC1	138582-337-R-J1-PDC complex spheroid viability	120%
CC(C)CC(NC(=O)C(Cc1ccccc1)NC(=O)c1cnccn1)B(O)O (stereo unspecified) + NC1CC1c1ccc(-c2cccc(O)c2)cc1	138582-337-R-J1-PDC complex spheroid viability	1.61%
